Assay Setup: in methanol, 318.15 K
Measure Name: solubility (mole fraction)

Return the recorded solubility (mole fraction) value; entry: `CN(C)[C@@H]1C(=O)C(C(N)=O)=C(O)[C@@]2(O)C(=O)C3=C(O)c4c(O)cccc4C[C@H]3C[C@@H]12`
0.000332

* * *

Assay Setup: in n-propanol, 313.15 K
Measure Name: solubility (mole fraction)
Respond numerically, and do not add a unit to the figure.

Dear colleague, please send me the reported solubility (mole fraction) for `CN(C)[C@@H]1C(=O)C(C(N)=O)=C(O)[C@@]2(O)C(=O)C3=C(O)c4c(O)cccc4C[C@H]3C[C@@H]12` when you can.
0.000155
